Target or system: Cyclin-dependent kinase 2/cyclin E1 (Homo sapiens, UniProt P24941)
Method notes: Inhibition of human CDK2/CyclinE expressed in baculovirus insect cell system using Rb as substrate after 30 mins by scintillation counting

>  <Compound>
COc1cc[nH]c1/C=C1\C(=O)Nc2ccc([N+](=O)[O-])c(N3CC[C@@H](O)C3)c21

>  <Target or system>
Cyclin-dependent kinase 2/cyclin E1 (Homo sapiens, UniProt P24941)

>  <IC50 / nM>
3

$$$$
>  <Compound>
COc1ccc2c(c1)/C(=C/c1[nH]ccc1OC)C(=O)N2

>  <Target or system>
Cyclin-dependent kinase 2/cyclin E1 (Homo sapiens, UniProt P24941)

>  <IC50 / nM>
209

$$$$
>  <Compound>
COc1cc[nH]c1/C=C1\C(=O)Nc2ccc([N+](=O)[O-])c(-n3ccnc3)c21

>  <Target or system>
Cyclin-dependent kinase 2/cyclin E1 (Homo sapiens, UniProt P24941)

>  <IC50 / nM>
1750

$$$$
>  <Compound>
COc1cc[nH]c1/C=C1\C(=O)Nc2ccc([N+](=O)[O-])c(N3CCC(N)CC3)c21

>  <Target or system>
Cyclin-dependent kinase 2/cyclin E1 (Homo sapiens, UniProt P24941)

>  <IC50 / nM>
5

$$$$
>  <Compound>
COc1cc[nH]c1/C=C1\C(=O)Nc2ccc([N+](=O)[O-])c(N3CCCC(O)C3)c21 (stereo not given)

>  <Target or system>
Cyclin-dependent kinase 2/cyclin E1 (Homo sapiens, UniProt P24941)

>  <IC50 / nM>
2

$$$$
>  <Compound>
COc1cc[nH]c1/C=C1\C(=O)Nc2ccc([N+](=O)[O-])c(N3CCCC(CO)C3)c21 (stereo not given)

>  <Target or system>
Cyclin-dependent kinase 2/cyclin E1 (Homo sapiens, UniProt P24941)

>  <IC50 / nM>
2

$$$$
>  <Compound>
COc1cc[nH]c1/C=C1\C(=O)Nc2ccc([N+](=O)[O-])cc21

>  <Target or system>
Cyclin-dependent kinase 2/cyclin E1 (Homo sapiens, UniProt P24941)

>  <IC50 / nM>
39

$$$$
>  <Compound>
COc1cc[nH]c1/C=C1\C(=O)Nc2ccc([N+](=O)[O-])c(NC3CCNCC3)c21

>  <Target or system>
Cyclin-dependent kinase 2/cyclin E1 (Homo sapiens, UniProt P24941)

>  <IC50 / nM>
5

$$$$
>  <Compound>
COc1cc[nH]c1/C=C1\C(=O)Nc2ccc([N+](=O)[O-])c(N3CC[C@H](O)C3)c21

>  <Target or system>
Cyclin-dependent kinase 2/cyclin E1 (Homo sapiens, UniProt P24941)

>  <IC50 / nM>
5

$$$$
>  <Compound>
COc1cc[nH]c1/C=C1\C(=O)Nc2ccc([N+](=O)[O-])c(N3CC[C@H](C(N)=O)C3)c21

>  <Target or system>
Cyclin-dependent kinase 2/cyclin E1 (Homo sapiens, UniProt P24941)

>  <IC50 / nM>
5

$$$$
>  <Compound>
COc1cc[nH]c1/C=C1\C(=O)Nc2ccc([N+](=O)[O-])c(N3CCCC(C(N)=O)C3)c21 (stereo not given)

>  <Target or system>
Cyclin-dependent kinase 2/cyclin E1 (Homo sapiens, UniProt P24941)

>  <IC50 / nM>
6

$$$$
>  <Compound>
COc1cc[nH]c1/C=C1\C(=O)Nc2ccccc21

>  <Target or system>
Cyclin-dependent kinase 2/cyclin E1 (Homo sapiens, UniProt P24941)

>  <IC50 / nM>
5360

$$$$
>  <Compound>
COc1cc[nH]c1/C=C1\C(=O)Nc2ccc(F)cc21

>  <Target or system>
Cyclin-dependent kinase 2/cyclin E1 (Homo sapiens, UniProt P24941)

>  <IC50 / nM>
847

$$$$
>  <Compound>
COc1cc[nH]c1/C=C1\C(=O)Nc2ccc([N+](=O)[O-])c(N3CCC(O)CC3)c21

>  <Target or system>
Cyclin-dependent kinase 2/cyclin E1 (Homo sapiens, UniProt P24941)

>  <IC50 / nM>
4

$$$$
>  <Compound>
COc1cc[nH]c1/C=C1\C(=O)Nc2ccc([N+](=O)[O-])c(N[C@H]3CC[C@H](N)C3)c21 (racemic)

>  <Target or system>
Cyclin-dependent kinase 2/cyclin E1 (Homo sapiens, UniProt P24941)

>  <IC50 / nM>
5

$$$$
>  <Compound>
COc1cc[nH]c1/C=C1\C(=O)Nc2ccc([N+](=O)[O-])c(N3CC[C@@H](N)C3)c21

>  <Target or system>
Cyclin-dependent kinase 2/cyclin E1 (Homo sapiens, UniProt P24941)

>  <IC50 / nM>
3

$$$$
>  <Compound>
COc1cc[nH]c1/C=C1\C(=O)Nc2ccc([N+](=O)[O-])c(N[C@H]3CC[C@H](O)C3)c21 (racemic)

>  <Target or system>
Cyclin-dependent kinase 2/cyclin E1 (Homo sapiens, UniProt P24941)

>  <IC50 / nM>
5

$$$$
>  <Compound>
COc1cc[nH]c1/C=C1\C(=O)Nc2ccc([N+](=O)[O-])c(N[C@H]3CC[C@H](O)CC3)c21

>  <Target or system>
Cyclin-dependent kinase 2/cyclin E1 (Homo sapiens, UniProt P24941)

>  <IC50 / nM>
6

$$$$
>  <Compound>
COc1cc[nH]c1/C=C1\C(=O)Nc2ccc([N+](=O)[O-])c(N3CC[C@@H](NC=O)C3)c21

>  <Target or system>
Cyclin-dependent kinase 2/cyclin E1 (Homo sapiens, UniProt P24941)

>  <IC50 / nM>
3

$$$$
>  <Compound>
COc1cc[nH]c1/C=C1\C(=O)Nc2ccc([N+](=O)[O-])c(N3CCNC(C(N)=O)C3)c21 (stereo not given)

>  <Target or system>
Cyclin-dependent kinase 2/cyclin E1 (Homo sapiens, UniProt P24941)

>  <IC50 / nM>
28

$$$$

Values from ChEMBL document CHEMBL1949619
